- Tested on: OVCAR-3 ovarian
- ASSAY_PROTOCOL: NCI tumour cell line growth inhibition, 48 h; in the data active means GI50 below about 0.43 µM; inactive means the rest
Outcomes you can answer with include only these: 1.0 = active, 0.0 = inactive

# fetch the recorded call for CN(C)c1ncnc2c1ccn2C1OC(CO)C(O)C1O (stereo not given) here
0.0

Try this compound too: "CN(C)N=Nc1nn(C(=O)Nc2ccc(Cc3ccccc3)cc2)c2ccccc12"
0.0

Would you kindly repeat that for "COc1cc2nc(N3CCC[C@@H](NC4=CC(=O)c5ccccc5C4=O)C3)nc(N)c2cc1OC" ?
0.0

Ok, now "Nc1ccccc1C#C/C=C\C#Cc1ccccc1F"
0.0

What do we get for "Oc1ccc(O)c2c1C1(Cl)C(Cl)=C(Cl)C2(Cl)C1(Cl)Cl" ?
0.0

What about this compound? "COC(=O)Nc1nc2ccc(S(=O)(=O)c3ccc(NC(=O)Nc4cc(C(F)(F)F)ccc4F)cc3)cc2[nH]1"
0.0

// query: NCCSC(C[N+](=O)[O-])c1ccccc1Cl (stereo not given)
0.0

Same lookup for CCCC(CCC)C(=O)OCC1(CO)C/C(=C\c2ccc(C(F)(F)F)cc2)C(=O)O1 (stereo not given) , please.
0.0

Query "c1ccc(/C(=N\Nc2ccc3ccccc3n2)c2ccccn2)cc1" next
1.0

// repeat for CCc1nc(N)nc(N)c1C#CC(C)c1cc(-c2ccnc(C)c2)c2oc(C)nc2c1 (stereo not given) and report
1.0
